- System: Human alphaherpesvirus 2
- Procedure details: Antiviral activity against HSV-2 infected in HEL cells assessed as inhibition of virus-induced cytopathogenicity
- Type: functional, organism-based
- Experimental conditions: Human alphaherpesvirus 2, HEL
Observation type: pEC50
// pEC50 here means minus log10 of the molar concentration (mol/L)

Query :: Tell us which pEC50 value is on record for "O=C(c1ccccc1)n1c(=O)c2ccccc2n(Cc2cn(C[C@H](OCc3ccccc3)[C@H](O)P(=O)(OCc3ccccc3)OCc3ccccc3)nn2)c1=O"
Result :: 5.40

---

- Tested on: Human alphaherpesvirus 3
- Procedure details: Antiviral activity against Thymidine kinase-negative Varicella-zoster virus 07-1 infected in HEL assessed as reduction in virus plaque formation
- Format: functional, organism-based
- Experimental conditions: Human alphaherpesvirus 3, 07-1
Observation type: pEC50
// pEC50 here means minus log10 of the molar concentration (mol/L)

Query :: Tell me its pEC50 on Human alphaherpesvirus 3: "O=c1cnn(Cc2cn(C[C@H](OCc3ccccc3)[C@@H](O)P(=O)(OCc3ccccc3)OCc3ccccc3)nn2)c(=O)[nH]1"
Result :: 4.15
